Tested on: SBK1
measurementSetup: concentration: 1 μM, replicates: in singlicate; n = 1;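 note: KINOMEscan kinase panel screen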
measuredParameter: %Inh
Answer by giving the amount and then stating its unit.

Check out these entries, answers already filled in.
CN(C)c1cc(-c2ccc3c(N)n[nH]c3c2)nc(N)n1 7%
Cl.c1ccc(Cn2cnc3cc(Nc4ncnc5ccccc45)ccc32)cc1 1%

Bench note, SBK1: entry CCS(=O)(=O)c1ccc(OC)c(Nc2ncc(-c3ccc(F)cc3)o2)c1.Cl , its %Inh = 0%

###

Record form. Attribute: %Inh. Fill in for each entry.
System: SGK2
measurementSetup: concentration: 1 μM, replicates: in singlicate; n = 1
Answer by giving the amount and then stating its unit.

Check out these entries, answers already filled in.
molecule	measuredParameter	measuredValue
COc1cc2ncn(-c3cc(OCCCc4ccccc4)c(C(N)=O)s3)c2cc1OC	%Inh	0%
COc1cc2nccc(Nc3ccc(OCc4ccc(NC(C)=O)cc4)cc3)c2cc1OC.Cl	%Inh	0%
COc1cccc(-n2cnc3c(N)ncnc32)c1	%Inh	8%
COc1cc2ncn(-c3cc(OCc4ccncc4)c(C(N)=O)s3)c2cc1OC	%Inh	0%
Nc1nc(-c2ccccc2F)c(-c2ccnc3ccccc23)s1	%Inh	1%

Look up %Inh for the entries below, preserving their order.
1. Cc1ccccc1COc1cc(-n2cnc3cc(Cl)ccc32)sc1C(N)=O
2. Nc1ncnc2c1ncn2-c1cccc2ccccc12

[out]
1: 6%; 2: 21%

Look up %Inh for the entries below, preserving their order.
1. CCC(=O)c1c(-c2ccccc2)c2cc(Cl)ccc2c(=O)n1Cc1cc(C(=O)NC2CC2)n(C)n1
2. Nc1nc(N)c2nc(-c3ccccc3)[nH]c2n1
3. Nc1nccc2scc(-c3ccc4c(c3)CCN4C(=O)Cc3ccccc3)c12
4. O=C1NC(=O)C(c2ccccc2)=C1Nc1cccc(O)c1
5. Nc1n[nH]c2nnc(-c3ccccc3)c(-c3ccccc3)c12

[out]
["5%", "18%", "0%", "9%", "0%"]

Look up %Inh for the entries below, preserving their order.
1. CN(C)c1cc(-c2ccc3c(N)n[nH]c3c2)nc(N)n1
2. COc1cc2nccc(Nc3cccc(Oc4ccccc4)c3)c2cc1OC.Cl
3. COc1cc(Nc2ccnc3ccc(C(F)(F)F)cc23)cc(OC)c1OC
4. O=C(Nc1n[nH]c2nc(-c3ccccc3)c(Cl)cc12)C1CC1

[out]
1: 0%; 2: 0%; 3: 0%; 4: 5%

Look up %Inh for the entries below, preserving their order.
1. Cc1ccc(-c2ccc3c(ccc4sc5c(c43)NC[C@@H](C)N=C5N(C)C)n2)cn1
2. Cn1c(=O)c(F)c(Nc2ccc(I)cc2F)c2c(=O)n(OC[C@H](O)CO)cnc21
3. COc1cccc(C2=C(N(C)c3ccccc3)C(=O)NC2=O)c1
4. Cc1cccc(-c2cc(-c3c[nH]nc3-c3ccccn3)ccn2)c1
5. COc1cc2ncn(-c3cc(OCc4ccncc4Br)c(C(N)=O)s3)c2cc1OC
6. COc1cc2ncn(-c3cc(OCc4ccc(S(C)(=O)=O)cc4)c(C(N)=O)s3)c2cc1OC

[out]
0%
3%
0%
6%
3%
24%

Look up %Inh for the entries below, preserving their order.
1. COc1ccc(-c2cc3c(C)nc(N)nc3n([C@H]3CC[C@H](OCCO)CC3)c2=O)cn1
2. FC(F)(F)c1ccc(-c2ncn(CCCN3CCOCC3)c2-c2ccncc2)cc1
3. CCC(=O)c1c(-c2ccccc2)c2cc(Cl)ccc2c(=O)n1Cc1cc(S(C)(=O)=O)n(CC(F)F)n1
4. CCC(=O)c1c(-c2ccccc2)c2cc(Cl)ccc2c(=O)n1Cc1cc(S(C)(=O)=O)n(CCC(C)(C)O)n1
5. Cc1nnc(-c2ccc3ncn(-c4ccc(S(C)=O)cc4)c3c2)o1 (stereo not shown)
6. COc1ccc(Nc2nccc(N3CCC(NS(=O)(=O)c4ccc(NC(C)=O)cc4)C3)n2)cc1 (stereo not shown)
7. Nc1ncnc2c1ncn2-c1cccc(F)c1

[out]
0%
25%
0%
4%
0%
14%
38%

Look up %Inh for the entries below, preserving their order.
1. CCn1c(-c2nonc2N)nc2ccccc21
2. Cc1cc(Nc2nc(-c3cccc(C)n3)nc3ccccc23)ccn1
3. COc1cc(Nc2nccc(N3CCC(NC(=O)C(C)c4ccc(Cl)cc4)C3)n2)cc(OC)c1OC (stereo not shown)
4. Cc1nn2c(=O)cc(N3CCOCC3)nc2n1Cc1cccc(Cl)c1Cl
5. CN1C(=O)C(Nc2ccccc2)=C(c2ccccc2)C1=O
6. O=c1cc(N2CCOCC2)nc2n(Cc3ccc(F)c(Cl)c3)ccn12

[out]
1. 12%
2. 0%
3. 0%
4. 0%
5. 0%
6. 0%

Look up %Inh for the entries below, preserving their order.
1. CCCNC(=O)Nc1ccc(Oc2ncnc3ccn(C)c23)cc1
2. CCCC(=O)Nc1n[nH]c2ncc(-c3cccc4ccccc34)cc12

[out]
13%
0%
